tested on: DLD-1 BRCA2−/− cells; assay: Homologous recombination synthetic lethal inhibition of proliferation, DLD-1 BRCA2-/- (Cell Titre Glo 3D); assay type: cell-based; details: Homo sapiens, DLD-1, first proliferation column (c5); DLD-1 BRCA2-/-; read-out: POLQ PD Prolif Lumin (converted)
Give measured log10 IC50 for each item. Keep answers brief.
On a log10 scale: recorded IC50, unit nM.

compound=C[C@H](COc1cccc(-c2nc3c(OC4(C)CC4)ncnc3n2Cc2cccc(Cl)c2)c1Cl)C(=O)O attribute_measured="log10 IC50" readout_value=2.10

Each of the following entries comes with a recorded value; kindly state log10 IC50 for each.
1. CNC(=O)N1CC[C@@H](Oc2ccc(-c3nc4c(OC5(C)CC5)ncnc4n3Cc3cc(C)ccn3)c(Cl)c2)C1
2. CC(C)C(CCOc1ccc(-c2nc3c(OC4(C)CC4)ncnc3n2Cc2cccc(Cl)c2)c(Cl)c1)C(=O)O (racemic)
3. Cc1ccnc(Cn2c(-c3ccc(C(=O)NC4COC4)cc3Cl)nc3c(OC4(C)CC4)ncnc32)c1

**A:**
1. 2.90
2. 2.20
3. 3.00

Each of the following entries comes with a recorded value; kindly state log10 IC50 for each.
1. Cc1ccnc(Cn2c(-c3ccc(OCC(=O)NCC(C)(C)O)cc3Cl)nc3c(OC4(C)CC4)ncnc32)c1
2. CNCCOc1ccc(-c2nc3c(OC4(C)CC4)ncnc3n2Cc2cc(C)ccn2)c(Cl)c1
3. CC(CCOc1ccc(-c2nc3c(OC4(C)CC4)ncnc3n2Cc2cccc(C(C)(F)F)c2)c(Cl)c1)C(=O)O (single isomer, unassigned) [Example T545]
4. CC1(Oc2ncnc3c2nc(-c2ccc(OCCN4C[C@@H]5C[C@H]4CN5)cc2Cl)n3Cc2cc(Cl)ccn2)CC1
5. Cc1ccnc(Cn2c(-c3ccc(OCC4(O)CC4)cc3Cl)nc3c(OC4(C)CC4)ncnc32)c1

**A:**
1: 2.60; 2: 2.30; 3: 3.00; 4: 2.60; 5: 2.40

Each of the following entries comes with a recorded value; kindly state log10 IC50 for each.
1. Clc1cc(OCCN2CCNCC2)ccc1-c1nc2c(OC3CCC3)ncnc2n1Cc1ccccc1
2. Cc1ccnc(Cn2c(-c3ccc(N4CC[C@@H](O)C4=O)cc3Cl)nc3c(OC4(C)CC4)ncnc32)c1
3. Cc1ccnc(Cn2c(-c3ccc(NC(=O)N(C)C)cc3Cl)nc3c(OC4(C)CC4)ncnc32)c1
4. Cc1ccnc(Cn2c(-c3ccc(OCCN4CCNCC4=O)cc3Cl)nc3c(OC4(C)CC4)ncnc32)c1
5. Cc1ccnc(Cn2c(-c3ccc(O[C@H]4CCN(C(=O)CO)C4)cc3Cl)nc3c(OC4(C)CC4)ncnc32)c1
6. Cc1ccnc(Cn2c(-c3ccc(NC(=O)[C@@H](C)O)cc3Cl)nc3c(OC4(C)CC4)ncnc32)c1
7. CNC(=O)COc1ccc(Cl)c(-c2nc3c(OC4(C)CC4)ncnc3n2Cc2cc(C)ccn2)c1
8. Cc1ccnc(Cn2c(-c3ccc(OCC(=O)N4CCC[C@H]4C#N)cc3Cl)nc3c(OC4(C)CC4)ncnc32)c1

**A:**
[2.70, 2.50, 2.70, 2.50, 2.80, 2.50, 3.80, 2.50]

Each of the following entries comes with a recorded value; kindly state log10 IC50 for each.
1. CC1(Oc2ncnc3c2nc(-c2ccc(OCCN4CCNCC4)cc2Cl)n3Cc2cc(C(F)F)ccn2)CC1
2. Cc1ccnc(Cn2c(-c3ccc(CCN4CC[C@@H](O)C4)cc3Cl)nc3c(OC4(C)CC4)ncnc32)c1
3. CC1(Oc2ncnc3c2nc(-c2ccc(OCCN4CCC[C@H]4C(=O)O)cc2Cl)n3Cc2cccc(Cl)c2)CC1

**A:**
[3.00, 2.50, 2.50]
